B1: Transcription factor SOX-11, residues 50 to 117; numbered along this chain, P35716 (parent)
chain: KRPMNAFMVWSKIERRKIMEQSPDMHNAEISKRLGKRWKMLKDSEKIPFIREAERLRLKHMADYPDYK

- Variants of: B1
- test_summary: abundance fitness (aPCA) (normalised: wild type 0, dead -1); higher = more abundant; growth selection in yeast, the domain comes from the species named
- condition_context: Homo sapiens
// reported abundance fitness per item
Please give the numeric answer without any surrounding text.

Worked examples follow.
| variant_string | abundance fitness |
| --- | --- |
| G35D | 0.25 |
| S44G | -0.208 |
| M40C | -0.191 |
| L41E | -1.04 |
| M19R | -0.24 |
| L41R | -0.762 |
| A28K | -0.278 |
| K39L | -0.274 |
| S22D | 0.042 |
| Q21F | -0.661 |

Answer with reported abundance fitness of `K39P` -0.868

State its abundance fitness: `R37P` -1.13

Fill in reported abundance fitness for this entry: `E29I` -0.815

Give the measured abundance fitness for `K36H` -0.036

Note abundance fitness for the variant shown: `L34H` -0.846

Complete the entry with abundance fitness for `L34Q` -0.638

Return reported abundance fitness. Input variant: `K32A` 0
